TARGET ENTITY: Human TRPC6 (Homo sapiens)
Construct: expressed in transfected cells
Sequence (Q9Y210 1-931): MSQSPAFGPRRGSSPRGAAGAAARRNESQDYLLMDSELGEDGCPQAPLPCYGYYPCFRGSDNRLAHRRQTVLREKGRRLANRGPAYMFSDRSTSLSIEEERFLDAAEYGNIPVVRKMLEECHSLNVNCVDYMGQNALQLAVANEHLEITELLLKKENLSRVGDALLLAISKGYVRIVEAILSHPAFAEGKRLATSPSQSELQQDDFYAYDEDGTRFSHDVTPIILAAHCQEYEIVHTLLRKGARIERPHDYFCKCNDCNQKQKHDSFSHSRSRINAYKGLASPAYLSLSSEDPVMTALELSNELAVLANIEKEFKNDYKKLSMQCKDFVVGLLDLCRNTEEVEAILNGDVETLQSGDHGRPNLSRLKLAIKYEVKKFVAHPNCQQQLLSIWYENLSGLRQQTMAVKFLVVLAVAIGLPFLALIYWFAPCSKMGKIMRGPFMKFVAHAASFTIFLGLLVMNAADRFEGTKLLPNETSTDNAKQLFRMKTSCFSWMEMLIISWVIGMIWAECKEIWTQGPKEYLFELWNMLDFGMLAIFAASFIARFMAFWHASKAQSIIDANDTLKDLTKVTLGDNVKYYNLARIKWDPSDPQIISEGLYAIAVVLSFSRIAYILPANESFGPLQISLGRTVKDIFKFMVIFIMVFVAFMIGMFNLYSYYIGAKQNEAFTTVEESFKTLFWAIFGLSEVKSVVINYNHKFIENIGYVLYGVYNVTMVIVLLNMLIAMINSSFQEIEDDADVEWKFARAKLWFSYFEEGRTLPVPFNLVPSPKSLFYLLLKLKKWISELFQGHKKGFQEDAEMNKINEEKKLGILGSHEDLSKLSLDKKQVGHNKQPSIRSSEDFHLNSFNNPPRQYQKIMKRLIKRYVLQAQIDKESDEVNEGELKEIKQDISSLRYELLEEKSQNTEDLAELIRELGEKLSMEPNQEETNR
TEST DESCRIPTION: Evaluation of TRPC6 channel inhibitory activity (1), FLIPR Calcium 5 Assay Kit, OAG stimulation (Compound Nos. 1-1293)
Assay type: cell-based
PARTICULARS: Human TRPC6 stably-expressing cells, OAG 30 μM, FLIPR Calcium 5 Assay Kit; read-out: Inhibitory activity (pIC50 class) (converted)
Measured IC50 values are reported for all entries that follow.

// below: answered molecules
Cn1nc(N2CCOCC2)cc1Oc1cc(C#N)ccc1-c1ccc(CCN)cn1; < 10 nM
Cc1nc(Oc2cc(C#N)ccc2-c2ncc(CCN)cn2)cc(N2CCCC2)n1; < 10 nM
Cc1cc(Oc2cc(C#N)ccc2-c2ncc(OCCN)cn2)cc(N2CCOCC2)n1; 10 to 1000 nM

I have this molecule here, Cc1nc(OCC2CCC2)cc(Oc2cc(C#N)ccc2-n2cc([C@@H](O)CN)cn2)n1 , and I need its recorded IC50.
10 to 1000 nM

====

Measured IC50 values are reported for all entries that follow.
TARGET ENTITY: Human TRPC6 (Homo sapiens, UniProt Q9Y210)
Construct: expressed in transfected cells
TEST DESCRIPTION: Evaluation of TRPC6 channel inhibitory activity (1), FLIPR Calcium 5 Assay Kit, OAG stimulation (Compound Nos. 1-1293)
Format: cell-based
PARTICULARS: Human TRPC6 stably-expressing cells, OAG 30 μM, FLIPR Calcium 5 Assay Kit; read-out: Inhibitory activity (pIC50 class) (converted)

Cc1nc(Oc2cc(C#N)ccc2-n2cc(N3CCNCCC3=O)cn2)cc(C2CCCC2)n1; > 1000 nM
CC(C)c1cc(Oc2cc(F)ccc2-c2ncc(CCN)cn2)n(C)n1; < 10 nM
Cc1cc(Oc2nc(C#N)ccc2-c2ccc(CCN)cn2)cc(N2CCOCC2)n1; 10 to 1000 nM
Cn1nccc1Oc1cc(C#N)ccc1-c1ncc(CCN)cn1; > 1000 nM
Cn1nc(C(F)F)cc1Oc1cc(C#N)ccc1-c1ncc(CN)cn1; 10 to 1000 nM
N#Cc1ccc(-c2ncc(CCN)cn2)c(Sc2cnnc(N3CCCCC3)c2)c1; < 10 nM
Cc1nnc(N2CCCC2)cc1Oc1cc(C#N)ccc1-c1ncc(CN)cn1; 10 to 1000 nM
CC(C)C(N)c1cnc(-c2ccc(C#N)cc2Oc2cc(-c3ccccn3)nn2C)nc1 (stereo not shown); < 10 nM
CCN(CC)c1cc(Oc2cc(C#N)ccc2-c2ncc(CN)cn2)nc(C)n1; 10 to 1000 nM
Cn1nc(C2CC2)cc1Oc1cc(C#N)ccc1-c1ncc(OCCN)cn1; 10 to 1000 nM

# returns recorded IC50 (system: Human TRPC6 (Homo sapiens, UniProt Q9Y210)) for CC(=O)Nc1cc(Oc2cc(C#N)ccc2-c2ccc(CCN)cn2)n(C)n1
10 to 1000 nM

# returns recorded IC50 (system: Human TRPC6 (Homo sapiens, UniProt Q9Y210)) for Cn1nc(-c2cccc(F)c2)cc1Oc1cc(C#N)ccc1-c1ncc([C@H](O)CN)cn1 (stereo in doubt)
< 10 nM

# returns recorded IC50 (system: Human TRPC6 (Homo sapiens, UniProt Q9Y210)) for Cn1nc(C(C)(C)C)cc1C(O)c1cc(C#N)ccc1-c1ncc(CN)cn1 (stereo not shown)
< 10 nM

# returns recorded IC50 (system: Human TRPC6 (Homo sapiens, UniProt Q9Y210)) for Cn1nc(C(F)(F)F)cc1Oc1cc(C#N)ccc1-c1ccc(CCN)cn1
< 10 nM

# returns recorded IC50 (system: Human TRPC6 (Homo sapiens, UniProt Q9Y210)) for Cc1cc(Oc2cc(C#N)ccc2-c2nccc(CN)n2)cc(N2CCOCC2)n1
> 1000 nM

# returns recorded IC50 (system: Human TRPC6 (Homo sapiens, UniProt Q9Y210)) for CCCc1cc(Oc2cc(C#N)ccc2-c2ccc(CCN)cn2)n(C)n1
< 10 nM

# returns recorded IC50 (system: Human TRPC6 (Homo sapiens, UniProt Q9Y210)) for NCCc1cnc(-c2ccc(F)cc2C(=O)c2cnn(CC(F)F)c2)nc1
> 1000 nM

# returns recorded IC50 (system: Human TRPC6 (Homo sapiens, UniProt Q9Y210)) for Cc1nc(Oc2cc(C#N)ccc2-c2ncc(CN)cn2)cc(N2CCC2=O)n1
> 1000 nM

# returns recorded IC50 (system: Human TRPC6 (Homo sapiens, UniProt Q9Y210)) for N#Cc1ccc(-c2ccc(CCN)cc2)c(Cn2cnc(-n3ccnn3)c2)c1
> 1000 nM

====

Measured IC50 values are reported for all entries that follow.
TARGET ENTITY: Human TRPC6 (Homo sapiens)
Construct: expressed in transfected cells
TEST DESCRIPTION: Evaluation of TRPC6 channel inhibitory activity (1), FLIPR Calcium 5 Assay Kit, OAG stimulation (Compound Nos. 1-1293)
Type: cell-based
PARTICULARS: Human TRPC6 stably-expressing cells, OAG 30 μM, FLIPR Calcium 5 Assay Kit; read-out: Inhibitory activity (pIC50 class) (converted)

// below: answered compounds
Cn1nc(-c2ccccc2)c(F)c1Oc1cc(C#N)ccc1-c1ncc(CCN)cn1; < 10 nM
Cc1nc(Oc2cc(C#N)ccc2-n2cc([C@@H](O)CN)cn2)cc(-c2ccccc2F)n1; 10 to 1000 nM
CN(C)c1cc(C(=O)c2cc(C#N)ccc2-c2ncc(CCN)cn2)n(C)n1; < 10 nM
N#Cc1ccc(-c2ccc(CCN)cc2)c(Oc2cnnc(-c3cccc(F)c3C#N)c2)c1; 10 to 1000 nM

I have this compound here, Cc1nn(-c2ccccn2)cc1Cc1cc(C#N)ccc1-c1ccc(CCN)cn1 , and I need its recorded IC50.
< 10 nM

I have this compound here, N#Cc1ccc(-c2ncc(CCN)cn2)c(Sc2sc(-c3ccccc3)nc2C#N)c1 , and I need its recorded IC50.
10 to 1000 nM

I have this compound here, Cc1nc(Oc2cc(C#N)ccc2-c2ccc([C@H](O)CN)cn2)cc(-c2nccs2)n1 , and I need its recorded IC50.
10 to 1000 nM

I have this compound here, CCNc1cc(Oc2cc(C#N)ccc2-c2ncc(CN)cn2)nc(C)n1 , and I need its recorded IC50.
10 to 1000 nM

I have this compound here, Cn1nc(-c2ccc(F)cc2)cc1Oc1cc(C#N)ccc1-c1ccc(C(O)CN)cc1 (centres unmarked) , and I need its recorded IC50.
< 10 nM

I have this compound here, Cc1cc(Oc2cc(C#N)c(C)cc2-c2ncc(CN)cn2)cc(N2CCOCC2)n1 , and I need its recorded IC50.
10 to 1000 nM

I have this compound here, N#Cc1ccc(-c2ncc(CN)cn2)c(C(=O)c2nnc(N3CCOCC3)s2)c1 , and I need its recorded IC50.
> 1000 nM

====

Measured IC50 values are reported for all entries that follow.
TARGET ENTITY: Human TRPC6 (Homo sapiens, UniProt Q9Y210)
Construct: expressed in transfected cells
TEST DESCRIPTION: Evaluation of TRPC6 channel inhibitory activity (1), FLIPR Calcium 5 Assay Kit, OAG stimulation (Compound Nos. 1-1293)
Type: cell-based
PARTICULARS: Human TRPC6 stably-expressing cells, OAG 30 μM, FLIPR Calcium 5 Assay Kit; read-out: Inhibitory activity (pIC50 class) (converted)

CC(C)NC(=O)c1cn(Cc2cc(C#N)ccc2-c2ccc(CCN)cc2)cn1; > 1 µM

I have this compound here, Cn1nc2c(c1Oc1cc(C#N)ccc1-c1nccc(CN)n1)CCCC2 , and I need its recorded IC50.
> 1 µM

I have this compound here, Cn1nc(C2CCC2)cc1Oc1cc(C#N)ccc1-c1ccc(C(O)CNCC#N)cn1 (stereo not shown) , and I need its recorded IC50.
0.01 to 1 µM

I have this compound here, Cc1nc(Oc2cc(C#N)ccc2-c2ccc(C(O)CN)cc2)cc(N2CCOCC2)n1 (stereo not shown) , and I need its recorded IC50.
< 0.01 µM
